# Tested on: Plasmodium falciparum chloroquine-resistant clone: Indochina-W2 (IndCh-W2)
# Measurement protocol: in vitro anti-malarial activity, semiautomated microdilution technique, chloroquine-resistant clone
# Format: cell-based
# Experimental setup: index of activity (IC50) relative to chloroquine under the same conditions
Measured I-CHLQ values are reported for all entries that follow.
Kindly provide the number alone.

Please review the entries below; each comes with its answer.
CC(C)CC(=O)O[C@@H]1C(c2ccccc2)=C[C@@]2(c3ccccc3)OOC(C)(C)O[C@@H]12 [Compound 10]; 1.7
O[C@@H]1C(c2ccccc2)=C[C@@]2(c3ccccc3)OOC3(CCCC3)O[C@@H]12 [Compound 11]; 73.8
C1=C(c2ccccc2)C[C@@]2(c3ccccc3)OOC3(CCCC3)O[C@@H]12 [Compound 4]; 12.2

-- ask Please look up its I-CHLQ: CC1(C)OO[C@]2(c3ccccc3)C=C(c3ccccc3)C(=O)[C@@H]2O1 [Compound 9]
-- reply 3.5

-- ask Try this molecule too: CC1(C)OO[C@]2(c3ccccc3)CC(c3ccccc3)=C[C@@H]2O1 [Compound 1]
-- reply 5.7

-- ask Try this molecule too: C1=C(c2ccccc2)C[C@@]2(c3ccccc3)OOC3(CCOCC3)O[C@@H]12 [Compound 12]
-- reply 295.3

-- ask Try this molecule too: CC1(C)OO[C@]2(c3ccccc3)C=C(c3ccccc3)[C@@H](O)[C@@H]2O1 [Compound 2]
-- reply 5.4

###

# Test system: Plasmodium falciparum chloroquine-sensitive clone: Sierra Leone-D6 (SL-D6)
# Measurement protocol: in vitro anti-malarial activity, semiautomated microdilution technique, chloroquine-sensitive clone
# Type: cell-based
# Experimental setup: index of activity (IC50) relative to chloroquine under the same conditions; clone S6-D6
Measured parameter: I-CHLQ
Kindly provide the number alone.

Please review the entries below; each comes with its answer.
C1=C(c2ccccc2)C[C@@]2(c3ccccc3)OOC3(CCCC3)O[C@@H]12 [Compound 4]; 0.82
CC1(C)OO[C@]2(c3ccccc3)C=C(c3ccccc3)[C@@H](OC(=O)c3ccccc3F)[C@@H]2O1 [Compound 7]; 0.06

# evaluate next
-- ask Please look up its I-CHLQ: CC(C)OC(=O)O[C@@H]1C(c2ccccc2)=C[C@@]2(c3ccccc3)OOC(C)(C)O[C@@H]12 [Compound 8]
-- reply 0.18

###

# System: Plasmodium falciparum chloroquine-sensitive clone: Sierra Leone-D6 (SL-D6)
# Measurement protocol: in vitro anti-malarial activity, semiautomated microdilution technique, chloroquine-sensitive clone
# Type: cell-based
# Experimental setup: index of activity (IC50) relative to chloroquine under the same conditions; clone S6-D6
Measured parameter: I-CHLQ

CC1(C)OO[C@]2(c3ccccc3)C=C(c3ccccc3)[C@@H](O)[C@@H]2O1 [Compound 2]; 0.27
OO[C@@H]1C(c2ccccc2)=C[C@@]2(c3ccccc3)OOC3(CCCCC3)O[C@@H]12 [Compound 13]; 0.93
C1=C(c2ccccc2)C[C@@]2(c3ccccc3)OOC3(CCCCC3)O[C@@H]12 [Compound 5]; 0.20
O[C@@H]1C(c2ccccc2)=C[C@@]2(c3ccccc3)OOC3(CCCC3)O[C@@H]12 [Compound 11]; 1.16
CC1(C)OO[C@]2(c3ccccc3)CC(c3ccccc3)=C[C@@H]2O1 [Compound 1]; 0.20

-- ask Please look up its I-CHLQ: CC(C)CC(=O)O[C@@H]1C(c2ccccc2)=C[C@@]2(c3ccccc3)OOC(C)(C)O[C@@H]12 [Compound 10]
-- reply 0.10

-- ask Try this compound too: C1=C(c2ccccc2)C[C@@]2(c3ccccc3)OOC3(CCOCC3)O[C@@H]12 [Compound 12]
-- reply 0.67

-- ask Try this compound too: CC1(C)OO[C@]2(c3ccccc3)C=C(c3ccccc3)C(=O)[C@@H]2O1 [Compound 9]
-- reply 0.21
